meta.source: paper PMC2391111

experiment: Plasma pharmacokinetics of bortezomib and docetaxel given in combination; assay type: in vivo, patients; conditions: human, plasma, intravenous, 1.3 mg, bortezomib 1.3 mg m^−2 (n=3), day 11; read-out: T½,z, mean (%CV) (converted)

| smilesString | unitDescriptor | half-life |
| --- | --- | --- |
| CC(C)C[C@H](NC(=O)[C@H](Cc1ccccc1)NC(=O)c1cnccn1)B(O)O | h | 12.2 |

###

test: Plasma pharmacokinetics of bortezomib and docetaxel given in combination; type: in vivo, patients; details: human, plasma, intravenous, 75 mg, docetaxel 75 mg m^−2, day 1, patients with measurable plasma concentrations at 24 h post-dose (n=3); read-out: T½,z 24-h, mean (converted)

| smilesString | half-life, h |
| --- | --- |
| CC(=O)O[C@@]12CO[C@@H]1C[C@H](O)[C@@]1(C)C(=O)[C@H](O)C3=C(C)[C@@H](OC(=O)[C@H](O)[C@@H](NC(=O)OC(C)(C)C)c4ccccc4)C[C@@](O)([C@@H](OC(=O)c4ccccc4)[C@H]21)C3(C)C | 17.6 |

###

test: Plasma pharmacokinetics of bortezomib and docetaxel given in combination; format: in vivo, patients; conditions: human, plasma, intravenous, 1 mg, bortezomib 1.0 mg m^−2, day 11, patients with measurable plasma concentrations at 24 h post-dose (n=4); read-out: T½,z 24-h, mean (converted)

| compound | unitDescriptor | half-life |
| --- | --- | --- |
| CC(C)C[C@H](NC(=O)[C@H](Cc1ccccc1)NC(=O)c1cnccn1)B(O)O [Bortezomib] | h | 14.3 |

###

test: Plasma pharmacokinetics of bortezomib and docetaxel given in combination; format: in vivo, patients; settings: human, plasma, intravenous, 1.5 mg, bortezomib 1.5 mg m^−2 (n=8), day 1, with docetaxel; read-out: CL, mean (%CV) (converted)
readoutName: clearance (mL/min)

| smilesString | readoutName | observedValue |
| --- | --- | --- |
| CC(C)C[C@H](NC(=O)[C@H](Cc1ccccc1)NC(=O)c1cnccn1)B(O)O | clearance | 615 |

###

assay: Plasma pharmacokinetics of bortezomib and docetaxel given in combination; format: in vivo, patients; conditions: human, plasma, intravenous, 1.5 mg, bortezomib 1.5 mg m^−2 (n=8), day 1, with docetaxel; read-out: AUC0–∞∞, mean (%CV)

| smilesString | unitDescriptor | AUC(0-inf) |
| --- | --- | --- |
| CC(C)C[C@H](NC(=O)[C@H](Cc1ccccc1)NC(=O)c1cnccn1)B(O)O | µg·h/mL | 0.0853 |

###

assay: Plasma pharmacokinetics of bortezomib and docetaxel given in combination; assay type: in vivo, patients; settings: human, plasma, intravenous, 1.5 mg, bortezomib 1.5 mg m^−2 (n=6), day 11; read-out: AUC0–∞∞, mean (%CV)
readoutName: AUC(0-inf) (ng·h/mL)

| smilesString | observedValue |
| --- | --- |
| CC(C)C[C@H](NC(=O)[C@H](Cc1ccccc1)NC(=O)c1cnccn1)B(O)O | 161 |

###

assay: Plasma pharmacokinetics of bortezomib and docetaxel given in combination; assay type: in vivo, patients; settings: human, plasma, intravenous, 1 mg, bortezomib 1.0 mg m^−2 (n=5), day 1, with docetaxel; read-out: T½,z, mean (%CV) (converted)

| smilesString | half-life |
| --- | --- |
| CC(C)C[C@H](NC(=O)[C@H](Cc1ccccc1)NC(=O)c1cnccn1)B(O)O | 9.15 h |
